Measure: melting point

# annotated cases, reported melting point shown
N#Cc1ccc(-c2ccc(C#N)c(N)c2)cc1N : 243 °C
COc1cc(OC)c2c(=O)[nH]c(-c3cc(C)c(OCCN4CCN(C)CC4)c(C)c3)cc2c1 : 195 to 198 °C
COc1cc(C(C)=O)ccc1OCCCCN1C2CCC1CC(c1n[nH]c3cc(F)ccc13)C2 (stereo not drawn) : 148 to 149 °C
CCCCCCCCCCCCCCCCCC(=O)c1cc(C(=O)OCC)ccc1O : 74 °C
Oc1noc2ccc(Oc3ccc(C(F)(F)F)cc3Cl)cc12 : 167 to 170 °C

For COc1ccc(O)c2c1C(C)(C)CCC2(C)C the compound record lists melting point as 127 °C

Reported melting point for CC(N)=CC(=O)c1ccc(Cl)cc1 was 126 to 130 °C

* * *

Measure: melting point

As a guide, the following entries are already answered.
N#Cc1[nH]c(Br)c(-c2ccc(Cl)cc2)c1Br : 191 to 194 °C
COC(=O)Cn1c(Cc2ccccc2)ccc(N)c1=O : 134 to 136 °C
Cc1cc(CCCCCCCOc2ccc(C3=NCCO3)cc2)on1 : 89 to 90 °C
COC(=O)c1nccn1C(c1ccccc1)(c1ccccc1)c1ccccc1 : 186 to 188 °C
O=C(OC(c1ccccc1)c1ccccc1)C(C1CC(Cl)=NO1)N1C(=O)c2ccccc2C1=O (stereo unspecified) : 178 to 179 °C

For this compound ( O=C(Oc1ccc2c(=O)cc(N3CCOCC3)oc2c1)c1ccccc1 ), measured melting point is 204 to 206 °C

Documented melting point of Cc1cc([N+](=O)[O-])ccc1N=C1SCC2(CCCC2)N1CC1CCCCC1 : 85 to 87 °C

* * *

Some molecules, each annotated with its measured melting point.

COc1cc2c(cc1Nc1ncc(Cl)c(Nc3ccccc3S(=O)(=O)C(C)C)n1)CCN(CC(=O)N1CCCC1)CC2 : 88 to 105 °C

The reported melting point of the molecule COC(=O)NCC1CN(c2ccc(-n3cnc(Cn4ccnc4)c3)c(F)c2)C(=O)O1 (stereo not given) was 78 to 80 °C

Item: CNc1nc(Cl)cc(NS(=O)(=O)c2ccccc2)n1 | melting point: 186 to 187 °C

The measured melting point associated with O=C(O)c1ccc(Cl)c2c1CCNCC2 reads 144 to 149 °C

The recorded melting point for entry CN(CCc1ccc([N+](=O)[O-])cc1)C1CCN(c2ccc([N+](=O)[O-])cc2)CC1 equals 97 to 98 °C

* * *

In this section, each of the molecules is paired with its reported melting point.

Example entries and their recorded answers appear below.
CCOC(=O)Cc1cccc(-c2nc(COc3ccc(C=O)cc3OC)c(C)o2)c1 : 113 to 114 °C
NC(CC(=O)O)c1ccc(Br)cc1 (stereo not drawn) : 234 °C
COC1CCC(OS(=O)(=O)c2ccc(C)cc2)C(COS(=O)(=O)c2ccc(C)cc2)O1 (stereo not drawn) : 110 to 112 °C
Cc1c(OCCNC(=O)OC(C)(C)C)noc1-c1ccccc1 : 118 to 120 °C

The molecule CC(=O)C(C)S(=O)(=O)c1ccc(C=C(C)c2ccc3c(c2)C(C)(C)CCC3(C)C)cc1 (stereo not drawn) showed melting point equal to 139 to 141 °C

Input Cc1ccc2[nH]c3c(c2c1)CC(C)n1c-3nc2c(c1=O)CCCC2 (stereo not drawn) . Output melting point: 220 °C

* * *

Reported melting point values for a set of compounds

Examples from the recorded data:
CC(=O)N1CCc2[nH]cc3c(=O)n(-c4ccc(Cl)cc4)nc-3c2C1 : > 350 °C
Cc1ccc(S(=O)(=O)N(c2ccc(C#N)cc2Cl)C(C)C)cc1 : 118 to 119 °C
COC(=O)C(O)C1(O)CCC2C3CCC4=CC(=O)C=CC4(C)C3C(O)CC21C (stereo not drawn) : 171 to 173 °C
CC(C)n1cc(-c2c(-c3ccccc3F)nn3ccncc23)ccc1=O : 150 to 151 °C
C#CCOc1nc(-c2ccc(OC)cc2)n(-c2ccc(OC)cc2)n1 : 81 to 82 °C
CCOC(=O)C1=C(C)NC(CSCCc2ccccc2)=C(C(=O)OCC)C1c1cccc([N+](=O)[O-])c1 (stereo not drawn) : 73 to 75 °C
CCCC(CCC)(CCC)C(N)=O : 69 °C
Cc1cc(C)cc(Nn2c(-c3ccccc3)c(C)[nH]c2=S)c1 : 240 to 242 °C
CN1CCC(OC2c3ccccc3CC(C)(C)n3cc(-c4ccccc4)nc32)CC1 (stereo not drawn) : 85 °C
C=CCN(C(=O)c1ccco1)c1c(C)cccc1C : 68 to 69 °C

// melting point lookup, compound = COc1ccc2c(c1)CC(C)C2=O (stereo not drawn) , result: 73 to 76 °C

// melting point lookup, compound = COc1c(C)cnc(CSc2nc3ncccc3[nH]2)c1C , result: 186 to 188 °C

Please fill in: melting point reported for O=C(O)c1cn(C2CC2)c2cc(N3CCC(c4cccnc4)C3)c(F)cc2c1=O (stereo not drawn) = 233 to 236 °C

* * *

Consider the following molecules and their measured melting point readings.

Look over these answered cases.
O=C(O)c1cccc2c1CCCC2O (stereo not drawn) : 160 to 162 °C
COc1cc2c(cc1OC)C(=O)NC(=O)C2 : 234 to 238 °C
Cn1c(C(F)(F)F)c(C#N)c2ccc(Cl)cc21 : 142 to 145 °C
CCCn1c(=O)c2c(NC)n[nH]c2n(Cc2ccccc2Cl)c1=O : > 300 °C
CC(C)(CCN1CCc2ccc(S(=O)(=O)Nc3cccc(Cl)c3)cc2C1)C(=O)O : 120 °C

# molecule COC(=O)C1=C(C)NC(C)=C(C(=O)OCCCCCCCC#N)C1c1cccc([N+](=O)[O-])c1 (stereo not drawn) ; its melting point = 151 to 152 °C

The molecule listed as O=C1C(Cl)=C(c2ccccc2)C1(F)F has a reported melting point of 77.5 to 78 °C

Reported melting point of O=C(c1cc(-c2ccccc2)c(=O)n2c1-c1sccc1C2)N1CCOCC1 : 225 to 227 °C

* * *

Measure: melting point

Field melting point (entry CC(=O)SC[C@H](NC(=O)C(C)C)C(=O)NCCSC(=O)c1ccccc1 ) reads 174 to 176 °C

Per the record, CCCCCCOC1=c2ccc3c(c2=C(c2ccc4c(c2)OCO4)C(C)(C(=O)OC)C1(C)C(=O)OC)OCO3 (stereo not given) has melting point of 110 to 111 °C

melting point measured on CCCCCCCCCCCCCc1c[nH]c(C(=O)OCC)c1 = 59 to 60 °C

Recorded result, CCOP(=O)(Cc1ccc(NC(=O)/C=C/c2cn[nH]c2-c2ccc(F)cc2)cc1)OCC , melting point: 181 to 182 °C

melting point reported for this compound COC(=O)CCCc1cc2nc(Cl)ccc2n1S(=O)(=O)c1cccc2nccnc12 : 71 °C

The recorded melting point for entry CCOC(=O)c1cccc(Cn2cnc3ccncc32)c1 equals 102 to 104 °C

What the record says about COc1ccccc1[C@@]1(O)[C@H](O)CC(c2ccccc2)(c2ccccc2)[C@@H]2CN(C(=O)Cc3cn(C)c4ccccc34)C[C@@H]21 (racemic) : melting point is 240 °C

* * *

melting point values, listed per item

Worked cases, answers included:
Cc1ccc(CN2CCC(O)CC2)cc1 : 72 to 74 °C
COc1ccc(C(F)(F)F)cc1Nc1ccc(C(F)(F)F)cc1[N+](=O)[O-] : 86 to 88 °C
Cc1nc2cc3c(nc2o1)C(=O)OC3=O : 194 to 196 °C

Query ClCCc1nnc2ccccc2c1Cl yields melting point of 81 to 82 °C

* * *

Measure: melting point

CNc1nc(N)nc(-c2cc(Cl)ccc2Cl)n1 : 205 to 206 °C
O=c1ccc2cnc(Nc3ccccc3)nc2n1-c1ccccc1 : 300 to 302 °C
NCc1cccc(OCc2nc(-c3ccc(Cl)cc3)cs2)c1 : 117 to 118 °C

Next, consider the following compound.
Lab note: CCOC[C@]1(OC)CC[C@H]2[C@@H]3CCC4=CC(=O)CCC4=C3[C@@H](c3ccc(C(C)=O)cc3)C[C@@]21C gave melting point of 134 to 137 °C

* * *

Measure: melting point

Lookup result for OCC1OC(n2cnc3c(NCC(c4ccccc4)c4cccc(Cl)c4)ncnc32)C(O)C1O (centres undefined) ; measured melting point: 107 to 110 °C

Entry NC1N=C(c2ccccc2)c2ccccc2NC1=O (centres undefined) ; melting point = 196 to 197 °C

// sample COc1cccc2c1CC(C(=O)NCCOc1ccc(C(=O)O)cc1)N2S(=O)(=O)c1ccc(-c2ccc(F)cc2)cc1 (centres undefined) , its melting point was 113 °C

// recorded melting point for OC1(c2ccccc2)CNN=C1c1ccc(Cl)cc1 (centres undefined) : 195 to 196 °C

So, O=C1C[C@@H]2CCCC[C@@H]2N1O (relative stereo) ? Its melting point was 85 to 86 °C

Input CCCCCCCNC(=S)N(C)c1cccc(-c2ccc(CCC(=O)O)cc2)c1 . Output melting point: 95 to 96 °C

Note to self: melting point recorded for CC(O)c1ccc(-c2ccc(N)cc2)o1 (centres undefined) was 100 to 104 °C

So, COC(=O)CC1=C(C)C(O)c2ccc(C#N)cc21 (centres undefined) ? Its melting point was 70 to 75 °C
